Origin of measurements: ChEMBL document CHEMBL1131215

System: Haemophilus influenzae
assaySummary: In vitro antibacterial activity against DILL strain of Haemophilus influenzae.
Format: functional
property: MIC (µg/mL)

Reference set (6 entries):
# smilesNotation, assayTarget, unitOfMeasure, MIC
rows = [
    ("CC[C@H]1OC(=O)/C(C)=C/[C@H](C)[C@@H](O[C@@H]2O[C@H](C)C[C@H](N(C)C)[C@H]2O)[C@@](C)(OC)C[C@@H](C)C(=O)[C@H](C)[C@H]2N(CCc3ccc(Br)cc3)C(=O)O[C@]12C", "Haemophilus influenzae", "µg/mL", 16),
    ("CC[C@H]1OC(=O)/C(C)=C/[C@H](C)[C@@H](O[C@@H]2O[C@H](C)C[C@H](N(C)C)[C@H]2O)[C@@](C)(OC)C[C@@H](C)C(=O)[C@H](C)[C@H]2N(CC/C=C\\c3ccc(Cl)cc3)C(=O)O[C@]12C", "Haemophilus influenzae", "µg/mL", 32),
    ("CC[C@H]1OC(=O)/C(C)=C/[C@H](C)[C@@H](O[C@@H]2O[C@H](C)C[C@H](N(C)C)[C@H]2O)[C@@](C)(OC)C[C@@H](C)C(=O)[C@H](C)[C@H]2N(CCc3ccccc3)C(=O)O[C@]12C", "Haemophilus influenzae", "µg/mL", 32),
    ("CC[C@H]1OC(=O)/C(C)=C/[C@H](C)[C@@H](O[C@@H]2O[C@H](C)C[C@H](N(C)C)[C@H]2O)[C@@](C)(OC)C[C@@H](C)C(=O)[C@H](C)[C@H]2N(CCCCc3ccccc3)C(=O)O[C@]12C", "Haemophilus influenzae", "µg/mL", 32),
    ("CC[C@H]1OC(=O)[C@H](C)[C@@H](O[C@H]2C[C@@](C)(OC)[C@@H](O)[C@H](C)O2)[C@H](C)[C@@H](O[C@@H]2O[C@H](C)C[C@H](N(C)C)[C@H]2O)[C@](C)(O)C[C@@H](C)C(=O)[C@H](C)[C@@H](O)[C@]1(C)O", "Haemophilus influenzae", "µg/mL", 4),
    ("C=COCCCN1C(=O)O[C@]2(C)[C@@H](CC)OC(=O)/C(C)=C/[C@H](C)[C@@H](O[C@@H]3O[C@H](C)C[C@H](N(C)C)[C@H]3O)[C@@](C)(OC)C[C@@H](C)C(=O)[C@H](C)[C@@H]12", "Haemophilus influenzae", "µg/mL", 64),
]

A. CC[C@H]1OC(=O)/C(C)=C/[C@H](C)[C@@H](O[C@@H]2O[C@H](C)C[C@H](N(C)C)[C@H]2O)[C@@](C)(OC)C[C@@H](C)C(=O)[C@H](C)[C@H]2N(CCc3ccc(F)cc3)C(=O)O[C@]12C
B. CC[C@H]1OC(=O)/C(C)=C/[C@H](C)[C@@H](O[C@@H]2O[C@H](C)C[C@H](N(C)C)[C@H]2O)[C@@](C)(OC)C[C@@H](C)C(=O)[C@H](C)[C@H]2N(CCc3ccc(Cl)c(Cl)c3)C(=O)O[C@]12C
Q) Please indicate which item has the smaller measured MIC: A versus B Answer with the label corresponding to your selection.
A) A
(A: 16 µg/mL, B: 32 µg/mL)

* * *

# ED50 listing for each entry below
Tested on: Mus musculus
assaySummary: Effective dose when administered orally in mice infected with Staphylococcus aureus NCTC-10649M.
Format: functional
details: po
Answer with a number only, understood to be in mg/kg/day.

Would you please look over these solved cases?
# compound, unitOfMeasure, endpointResult
rows = [
    ("CC[C@H]1OC(=O)/C(C)=C/[C@H](C)[C@@H](O[C@@H]2O[C@H](C)C[C@H](N(C)C)[C@H]2O)[C@@](C)(OC)C[C@@H](C)C(=O)[C@H](C)[C@H]2NC(=O)O[C@@]21C (stereo in doubt; 6)", "mg/kg/day", 35.8),
    ("CC[C@H]1OC(=O)/C(C)=C/[C@H](C)[C@@H](O[C@@H]2O[C@H](C)C[C@H](N(C)C)[C@H]2O)[C@@](C)(OC)C[C@@H](C)C(=O)[C@H](C)[C@H]2N(CCc3ccc([N+](=O)[O-])cc3)C(=O)O[C@]12C", "mg/kg/day", 50.1),
]

Q) So what's the measured ED50 for this one? CC[C@H]1OC(=O)/C(C)=C/[C@H](C)[C@@H](O[C@@H]2O[C@H](C)C[C@H](N(C)C)[C@H]2O)[C@@](C)(OC)C[C@@H](C)C2=NCCN3C(=O)O[C@@]1(C)[C@H]3[C@H]2C
A) 66.1

* * *

Test system: Streptococcus pyogenes
assaySummary: In vitro antibacterial activity against PIU 2548 strain of Streptococcus pyogenes
Format: functional
details: Streptococcus pyogenes
property: MIC (µg/mL)

P. CC[C@H]1OC(=O)/C(C)=C/[C@H](C)[C@@H](O[C@@H]2O[C@H](C)C[C@H](N(C)C)[C@H]2O)[C@@](C)(OC)C[C@@H](C)C(=O)[C@H](C)[C@H]2N(CCCOc3ccccc3)C(=O)O[C@]12C
Q. CC[C@H]1OC(=O)/C(C)=C/[C@H](C)[C@@H](O[C@@H]2O[C@H](C)C[C@H](N(C)C)[C@H]2O)[C@@](C)(OC)C[C@@H](C)C(=O)[C@H](C)[C@H]2N(CC/C=C\c3ccc(Cl)cc3)C(=O)O[C@]12C
Q) Which shows the larger MIC value: P or Q ? Indicate your choice by writing its label.
A) P

* * *

System: Streptococcus pyogenes
assaySummary: In vitro antibacterial activity against PIU 2548 strain of Streptococcus pyogenes
Assay type: functional
details: Streptococcus pyogenes
property: MIC (µg/mL)

// below: answered compounds
# compound, MIC, µg/mL
measured = [
    ("CC[C@H]1OC(=O)/C(C)=C/[C@H](C)[C@@H](O[C@@H]2O[C@H](C)C[C@H](N(C)C)[C@H]2O)[C@@](C)(OC)C[C@@H](C)C(=O)[C@H](C)[C@H]2N(CCNCc3ccccc3)C(=O)O[C@]12C", 3.1),
    ("CC[C@H]1OC(=O)/C(C)=C/[C@H](C)[C@@H](O[C@@H]2O[C@H](C)C[C@H](N(C)C)[C@H]2O)[C@@](C)(OC)C[C@@H](C)C(=O)/C(C)=C/[C@]1(C)OC(=O)OC", 25),
    ("CC[C@H]1OC(=O)/C(C)=C/[C@H](C)[C@@H](O[C@@H]2O[C@H](C)C[C@H](N(C)C)[C@H]2O)[C@@](C)(OC)C[C@@H](C)C(=O)[C@H](C)[C@H]2N(CCc3ccc(O)cc3)C(=O)O[C@]12C", 0.39),
    ("CC[C@H]1OC(=O)/C(C)=C/[C@H](C)[C@@H](O[C@@H]2O[C@H](C)C[C@H](N(C)C)[C@H]2O)[C@@](C)(OC)C[C@@H](C)C(=O)[C@H](C)[C@H]2N(CCCOc3cccc4cccnc34)C(=O)O[C@]12C", 0.2),
    ("CC[C@H]1OC(=O)/C(C)=C/[C@H](C)[C@@H](O[C@@H]2O[C@H](C)C[C@H](N(C)C)[C@H]2O)[C@@](C)(OC)C[C@@H](C)C(=O)[C@H](C)[C@H]2N(C(C)C)C(=O)O[C@]12C", 1.56),
]

I. C=COCCCN1C(=O)O[C@]2(C)[C@@H](CC)OC(=O)/C(C)=C/[C@H](C)[C@@H](O[C@@H]3O[C@H](C)C[C@H](N(C)C)[C@H]3O)[C@@](C)(OC)C[C@@H](C)C(=O)[C@H](C)[C@@H]12
II. CC[C@H]1OC(=O)/C(C)=C/[C@H](C)[C@@H](O[C@@H]2O[C@H](C)C[C@H](N(C)C)[C@H]2O)[C@@](C)(OC)C[C@@H](C)C2=NCCN3C(=O)O[C@@]1(C)[C@H]3[C@H]2C
III. CC[C@H]1OC(=O)/C(C)=C/[C@H](C)[C@@H](O[C@@H]2O[C@H](C)C[C@H](N(C)C)[C@H]2O)[C@@](C)(OC)C[C@@H](C)C(=O)[C@H](C)[C@H]2N(CCc3ccccc3)C(=O)O[C@]12C
Q) Rank ascending by MIC. // format: requested-order list of labels
A) III, II, I

a. CC[C@H]1OC(=O)/C(C)=C/[C@H](C)[C@@H](O[C@@H]2O[C@H](C)C[C@H](N(C)C)[C@H]2O)[C@@](C)(OC)C[C@@H](C)C(=O)[C@H](C)[C@H]2N(CCCc3cnc4ccccc4c3)C(=O)O[C@]12C
b. CC[C@H]1OC(=O)/C(C)=C/[C@H](C)[C@@H](O[C@@H]2O[C@H](C)C[C@H](N(C)C)[C@H]2O)[C@@](C)(OC)C[C@@H](C)C(=O)[C@H](C)[C@H]2N(CCc3cccs3)C(=O)O[C@]12C
Q) Kindly identify the item with the lower MIC figure among these two: a and b Provide the label of your selected option as the answer.
A) b
(b: 0.2 µg/mL, a: 0.39 µg/mL)

P. CCOCCCN1C(=O)O[C@]2(C)[C@@H](CC)OC(=O)/C(C)=C/[C@H](C)[C@@H](O[C@@H]3O[C@H](C)C[C@H](N(C)C)[C@H]3O)[C@@](C)(OC)C[C@@H](C)C(=O)[C@H](C)[C@@H]12
Q. CC[C@H]1OC(=O)/C(C)=C/[C@H](C)[C@@H](O[C@@H]2O[C@H](C)C[C@H](N(C)C)[C@H]2O)[C@@](C)(OC)C[C@@H](C)C(=O)[C@H](C)[C@H]2N(Cc3ccccc3)C(=O)O[C@]12C
R. CC[C@H]1OC(=O)/C(C)=C/[C@H](C)[C@@H](O[C@@H]2O[C@H](C)C[C@H](N(C)C)[C@H]2O)[C@@](C)(OC)C[C@@H](C)C(=O)[C@H](C)[C@H]2N(CCc3cccc(C(F)(F)F)c3)C(=O)O[C@]12C
Q) Falling order of MIC, please. Output the labels ranked as instructed.
A) R, P, Q
(R: 0.78 µg/mL, P: 0.39 µg/mL, Q: 0.2 µg/mL)

1. CC[C@H]1OC(=O)/C(C)=C/[C@H](C)[C@@H](O[C@@H]2O[C@H](C)C[C@H](N(C)C)[C@H]2O)[C@@](C)(OC)C[C@@H](C)C(=O)[C@H](C)[C@H]2N(CCCOc3ccc4ccccc4c3)C(=O)O[C@]12C
2. CC[C@H]1OC(=O)/C(C)=C/[C@H](C)[C@@H](O[C@@H]2O[C@H](C)C[C@H](N(C)C)[C@H]2O)[C@@](C)(OC)C[C@@H](C)C(=O)[C@H](C)[C@H]2N(CCCOc3ccncc3)C(=O)O[C@]12C
Q) Which of the two gives a bigger number for MIC: 1 or 2 ? Respond using the label that marks the chosen record.
A) 1
(1: 0.39 µg/mL, 2: 0.2 µg/mL)

I. CC[C@H]1OC(=O)/C(C)=C/[C@H](C)[C@@H](O[C@@H]2O[C@H](C)C[C@H](N(C)C)[C@H]2O)[C@@](C)(OC)C[C@@H](C)C(=O)[C@H](C)[C@H]2N(CCCOc3ccc(Cl)cc3)C(=O)O[C@]12C
II. CC[C@H]1OC(=O)/C(C)=C/[C@H](C)[C@@H](O[C@@H]2O[C@H](C)C[C@H](N(C)C)[C@H]2O)[C@@](C)(OC)C[C@@H](C)C(=O)[C@H](C)[C@H]2N(CCc3ccc(Oc4ccccc4)cc3)C(=O)O[C@]12C (stereo in doubt; 14)
Q) Which of the two items, I and II , has the greater recorded MIC? Answer by quoting the chosen item's label.
A) II
(II: 1.56 µg/mL, I: 0.39 µg/mL)
